For each of the binders below, state its GFP+% of LAIR1 reporter cells, collagen I coated, soluble Ab and K562 cells.
target-system: T1, LAIR1 on LAIR1 reporter cells (human, UniProt Q6GTX8 22-165, limits assumed); note: test concentration or dose not given here
T1 chain: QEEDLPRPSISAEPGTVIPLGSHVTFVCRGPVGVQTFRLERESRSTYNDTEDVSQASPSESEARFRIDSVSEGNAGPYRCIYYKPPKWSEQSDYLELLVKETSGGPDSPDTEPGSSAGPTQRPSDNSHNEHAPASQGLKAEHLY
protocol-description: cell-based or functional assay
One number for each entry, in %.

binder="LA-192 (antibody, V domains shown, Rabbit monoclonal IgG; Called an agonist antibody) VH: EQSLEESGGRLVTPGTPLTLTCTASGFSLSSYYMTWVRQAPGKGLEWIGYMHTGGGVVYASWATGRFTISRTSTTVDLKITSPTTEDTATYFCARSHAGYSTINRLDLWGVGTLVTISS VL: ELDLTQTPSSVSAAVGGTVTISCQSSPSVYTNNLSWFQQKPGQPPKLLIYDASKLESGVPSRFRGSGSGTQFTLTISDVQCDDAATYYCAGAYLSDSDTTFGGGTELEIK" reported_value=18.7
binder="LA-95 (antibody, V domains shown, Rabbit monoclonal IgG; also called mAb LA-95) VH: EQSLKESGGRLVTPGGSLTLTCTASGFDINNYNIQWVRQAPGKGLEWIGFISPAGNEYSATWAKGRFTIYKTSSTTVELKMTSLTASDTATYFCARHWDSWGPGTLVTISS VL: ELVMTQTESPVSAAVGGTVTISCQSSQSVYSNRLSWFQQKPGQPPKELVYWTSTLQSGVPSRFSGSGSGTQFTLTISDLECDDAATYYCLGGYSGNIYVFGGGTEVEIK" reported_value=0.595
binder="LA-151 (antibody, V domains shown, Rabbit monoclonal IgG) VH: SSSVEESGGRLVTPGTPLTLTCTVSGFSLGSYAMGWVRQGPGKGLEWIGAVYGTTGYIYFATWAKGRFTISKTSTTVDLKITSPTTEDTATYFCARGYLTDSIANGFGVWGPGTLVTVSS VL: ELDLTQTPASVSEPVGGTVTIKCQASQTITNRYLAWYQQKPGQPPKLLIYQSSKLASGVSSRFKGSGSGTDFTLTISDLECADAATYYCQCTDYGSTYLGTFGGGTEVEIK" reported_value=1.95
binder="LA-155 (antibody, V domains shown, Rabbit monoclonal IgG) VH: EQSLEESGGDLVKPEGSLTLTCTASGFSFNSNYWICWVRQTPGKGLEWIGCIYSGSSGDTYYASWAKGRFTISKTSSTTVTLQMTSLTAADTATYFCARGADYVYWSYGLWGPGTLVTISS VL: ELVLTQTPASVSAAVGGTLTIKCQASETIGTNLAWYQQKPGQPPKLLIYLASYLASGVSSRFKGSRSGTEFTLTISDLDCDDAATYYCQSTHFGNGHTFGGGTEVVVK" reported_value=0.867
binder="LA-94 (antibody, V domains shown, Rabbit monoclonal IgG; Called an agonist antibody; also called mAb LA-94; agonist Ab LA-94) VH: EQSLEESEGRLVTPGTPLTLTCTASGFSLSGYHMSWVRQAPGKGLEYIGYISERGTSYYANWAKGRFTVSKSSSSTVVLSIISPTAEDTATYFCARYGGGDSAFILWGPGTLVTISS VL: ELVMTQTPASVSGPVGGTVTIKCQASHNIDNSLAWYQQKPGQPPKLLIYKASTLASGVSSRFKGSGSGTEYTLTISDLECADAATYFCQGTIGLNSGCAFGGGTEVEIK" reported_value=24.6

Please give GFP+% of LAIR1 reporter cells, collagen I coated, soluble Ab and K562 cells for each item listed below.
1. LA-63 (antibody, V domains shown, Rabbit monoclonal IgG; also called mAb LA-63) VH: EQSVEESGGRLVAPGGSLTLTCTVSGFSLSSYAMSWVRQAPGKGLEWIGVMYNSGSAYYASWAKGRFTISRTSTTVDLKVTSLTTEDTATYFCGRGGSNSAWGDDLWGPGTLVTVSS VL: ELDMTQTPASVSEPVGGTVTIKCQASQSISIRYFSWYQQKPGQPPKLLIYGASTLASGVPSRFKGSGSGTDFTLTISDLECADAATYYCQDSNYNSNYFGAFGGGTEVVVK
2. LA-30 (antibody, V domains shown, Rabbit monoclonal IgG; also called mAb LA-30) VH: EQSVESGGGLVQPEGSLTLTCKASGFDFSRNAICWVRQAPGKGPEWIACYSFSSSATYYASWAKSRFTISKTSSTTVTLQMTSLTAADTATYFCARVDIYGGSRYWGMWGPGTLVTISS VL: ELVMTQTPASVEAAVGGTVTIKCQASQNIGGDLAWYQQKPGQPPKLLIYRASTLESGVPSRFSGSGSGTEFTLTISDLECADAATYYCQDTDIGSGAFGGGTELEIK
3. LA-235 (antibody, V domains shown, Rabbit monoclonal IgG; Called an antagonist antibody) VH: SSSVEESEGRLVTPGTPLTLTCTVSGFSLSSYTMGWVRQAPGEGLEWIGTTSNDGSTYYASWAKGRFTISKTSSTTVDLMMTSLTTEDTATYFCVRGTNIRSLWGPGTLVTISS VL: ELVMTQTPASVEAAVGGTVTIKCQASQSIGSNLAWYQQKPGQPPKLLIYLASALASGVSSRFKGSGSGSDFTLTISDLECADAATYYCQCTYGSSNNNNYGDPFGGGTEVEIK
4. LA-37 (antibody, V domains shown, Rabbit monoclonal IgG; also called mAb LA-37) VH: EQSLEESGGDLVKPGASLTLTCKASGFSFSSSEFMCWVRQAPGKGLEWIACIYGGLSDDTYFASWAKGRFTISKTSSITVTLQMTSLTAADTATYFCARSCDVNYYGFDPWGPGTLVTISS VL: ELVLTQTPAPVSAAVGDTVTIKCQASQNKGTNLAWYQQKPGQPPKLLIYLSSTLASGVPPRFKGSRSGTEYTLTISDLECADAATYFCQSTYYGSNGLTFGGGTEVEIK

1: 1.31; 2: 1.94; 3: 19; 4: 1.08

Find the recorded GFP+% of LAIR1 reporter cells, collagen I coated, soluble Ab and K562 cells belonging to LA-64 (antibody, V domains shown, Rabbit monoclonal IgG; also called mAb LA-64) VH: EQSLESGGGLITPGGTLTLTCTASGFTVTRYYMNWVRQAPGKGLEWIGYIYASSKTYYANWAKGRFTISKTSTTVDLKMTSLTAEDTGTYFCARGGVGNSGLNLDLWGPGTLVTISS VL: ELVLTQTPASVSEPVGGTVTIKCQASQSIGSWLAWYQQKPGQPPKLLIYQASRLASGVSSRFGGSGSGTEFTLTISDLECADAATYYCQQAEYSGDVENTFGGGTEVVVK and report it.
2.29
